- System: MOLM-13 cells
- Experimental Protocol: MOLM-13 Cell Proliferation Assay (indicator of DHODH inhibition)
- Type: cell-based
- Conditions: Homo sapiens, 72 Hours of culture, CellTiter-Glo, no uridine
Measured Parameter: IC50 (nM)

I. Fc1ccc(C2c3[nH]c4ccc(Cl)cc4c3CCN2c2nccc(C(F)(F)F)n2)c(F)c1F (stereo not drawn)
II. Cc1ccnc(N2CCc3c([nH]c4ccc(Cl)c(F)c34)C2c2ccc(F)cc2)n1 (stereo not drawn)
III. CN1CCN(c2ncc([C@H]3c4[nH]c5ccc(Cl)cc5c4CCN3c3nc(N4CCOCC4)nc(C(F)(F)F)n3)cn2)CC1
Inquiry: Put these in order: smallest IC50 first, largest last. Sort the labels as requested; that list is your answer.
Reply text: I, III, II
